# Test system: SK-MEL-2 melanoma
# EXPERIMENT_SUMMARY: NCI tumour cell line growth inhibition, 48 h
ATTRIBUTE_MEASURED: TGI (µM)
Give bare numbers, in µM.

Note to self: TGI recorded for COc1cc(C(=O)/C=C/c2c[nH]c3ccccc23)cc(OC)c1OC was 19.2

Note to self: TGI recorded for O=C1OC(c2ccccc2)=N/C1=C\c1ccccc1 was 46.8

Note to self: TGI recorded for COc1ccc(Cl)cc1NC(=O)O/N=C(\Cl)C(C)C was 33.9

Shift focus to the following entry.
Note to self: TGI recorded for Cc1ccc2nc(CN(CCN(Cc3nc4ccc(C)cc4[nH]3)Cc3nc4ccc(C)cc4[nH]3)Cc3nc4ccc(C)cc4[nH]3)[nH]c2c1 was 3.85
